Entry source: patent US6528494B2

- SYSTEM: UniProtKB P30542
- Sequence (P30542 whole entry): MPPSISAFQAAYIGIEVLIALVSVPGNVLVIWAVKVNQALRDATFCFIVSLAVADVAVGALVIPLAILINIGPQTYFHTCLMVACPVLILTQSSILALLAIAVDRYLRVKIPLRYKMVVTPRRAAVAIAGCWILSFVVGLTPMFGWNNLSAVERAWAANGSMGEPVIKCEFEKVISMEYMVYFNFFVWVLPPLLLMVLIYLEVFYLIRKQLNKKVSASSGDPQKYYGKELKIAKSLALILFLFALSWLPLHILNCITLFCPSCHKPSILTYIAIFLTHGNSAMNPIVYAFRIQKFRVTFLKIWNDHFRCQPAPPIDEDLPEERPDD
- TEST_SUMMARY: Agonist activity against adenosine 1 receptor (CHO cells, forskolin-enhanced cAMP/SPAP reporter)
- Format: cell-based
- CONDITION_PARAMETERS: CHO cells transfected with human receptor; forskolin-enhanced cAMP via SPAP; mean of all the versions tested
READOUT_NAME: A1 EC50 as a ratio of that of NECA
Write the number on its own, no unit after it.

Ask: Bench note: what A1 EC50 as a ratio of that of NECA did Cn1nnc(C2OC(n3cnc4c(NC(CO)Cc5ccccc5)nc(NCCN5CCCCC5)nc43)C(O)C2O)n1 (centres unmarked) show?
Result: 89.10

Ask: Try this molecule next: CC(=O)O.CCn1nnc([C@H]2O[C@@H](n3cnc4c(NCCC(C)(C)C)nc(NCCNc5ccccn5)nc43)[C@H](O)[C@@H]2O)n1
Result: 144.00
